Where do the numbers come from? From patent US6512099B2.

Task for the reader: assign each of the following compounds its reported IC50.
Biological target: diacylglycerol acyltransferase
Assay: Inhibitory activity against diacylglycerol acyltransferase derived from rat (rat liver microsome fraction)
Settings: 23° C., 15 minutes, read-out: concentration which inhibited 50% of the diacylglycerol acyltransferase
Give bare numbers, in µM.

{"Compound": "CCC(C)CC(C)CC(C)C(O)C(C)/C=C(\\C)C(O)C(C)/C=C(\\C)C(O)C(C)/C=C(\\C)C(=O)OC[C@@H](O)[C@@H](O)[C@H](O)CO (stereo partly shown)", "IC50 (µM)": 60}

Now consider the entry below.
Inquiry: Form field: reported IC50 of CCC(C)CC(C)CC(C)C(O)C(C)/C=C(\C)C(O)C(C)/C=C(\C)C(O)C(C)/C=C(\C)C(=O)OC[C@@H](O)[C@H](O)[C@H](O)CO (stereo partly shown)
Reply text: 33
